Assay: Toxicity liver stage against HepG2, at 10uM
Type: cell-based
Design: test concentration 10 uM, cell line HepG2-A16-CD81EGFP
Settings: human, HepG2-A16-CD81EGFP cells; read-out: INHIBITION
Exercise: state measured cytotoxicity at 10 µM for each of the molecules provided.
Give bare numbers, in %.

Reference set, count: 3
CCc1ncnc(N2CCCC(c3cc(C(N)=O)[nH]n3)C2)c1F (stereo unspecified) ... -4.68
CCCn1cc(-c2ccnc(NC3CCc4ccccc4C3)n2)c(C)n1 (stereo unspecified) ... 81.3
CS(=O)(=O)N1CCN(Cc2ccc(F)cc2Br)CC1 ... 0.0667

Hey, quick one: what's cytotoxicity at 10 µM for each of these?
1. CCC[C@@H]1CN(Cc2ccc(C(F)(F)F)nc2)C[C@H]1NS(C)(=O)=O
2. CCN(Cc1nonc1C)C(=O)Cn1nc(C(F)(F)F)cc1C
3. CCC(CO)N(C/C(C)=C/c1ccco1)Cc1ccco1 (stereo unspecified)

10.5
0.7
-3.41

* * *

Exercise: state measured cytotoxicity at 10 µM for each of the molecules provided.
Assay: Toxicity liver stage against HepG2, at 10uM
Type: cell-based
Parameters: test concentration 10 uM, cell line HepG2-A16-CD81EGFP
Details: human, HepG2-A16-CD81EGFP cells; read-out: INHIBITION

Reference set, count: 10
CSc1ncc(Cl)c(C(=O)NC(Cc2ccccc2)C(=O)O)n1 (configuration not stated) ... -17.3%
CC(C)OCc1ncn2c1CN(Cc1ccoc1)CCC2 ... -75.7%
CS(=O)(=O)NC(=O)c1cnc2c(cnn2C2CCCC2)c1 ... 8.18%
COCCN1CCc2c(c(COc3cccnc3)nn2C)C1 ... -113%
O=C(Cc1ccsc1)N1CCCC(c2cc(C(F)F)n3ncnc3n2)C1 (configuration not stated) ... -20.7%
COc1ccc2c(C(=O)N(C)C)cc(-c3cnc(N)nc3)nc2c1 ... -3.3%
Cc1cc(C)c(CNC(=O)NCc2ccc3c(c2)CCC3)c(=O)[nH]1 ... 10.4%
CC(OCc1ccccc1)C(=O)NCc1ccc(N(C)C)cc1 (configuration not stated) ... -12%
Cc1oncc1C(=O)NCc1cc(=O)n2c(n1)CN(C)CCC2 ... 5.02%
Cc1cc(C2CCCN(CCCS(=O)(=O)c3ccccc3)C2)n[nH]1 (configuration not stated) ... -7.64%

Hey, quick one: what's cytotoxicity at 10 µM for each of these?
1. COCCN1CCN(CCS(=O)(=O)C(F)(F)F)CC1C (configuration not stated)
2. Cc1ccccc1C(C(=O)NCCn1cccc1)N(C)C (configuration not stated)

-5.77%
7.62%

* * *

Assay: Toxicity liver stage against HepG2, at 10uM
Type: cell-based
Set-up: test concentration 10 uM, cell line HepG2-A16-CD81EGFP
Conditions: human, HepG2-A16-CD81EGFP cells; read-out: INHIBITION
observation_type: cytotoxicity at 10 µM (%)
Answers are plain numbers, in %.

Hey, quick one: what's cytotoxicity at 10 µM for each of these?
1. CN1C(=O)CC(C(=O)O)C12CCN(c1ccc3cccc(Cl)c3n1)CC2 (stereo not drawn)
2. COCCO[C@H]1CCN(C(=O)c2cc(C)on2)[C@H]1Cc1ccccc1
3. c1cncc(-c2noc(C3CN(Cc4cccs4)C3)n2)c1
4. CC[C@@]1(O)CCN(Cc2cc(C3CCCCC3)no2)C[C@H]1O
5. CCC(=O)Nc1nnc(CCOc2ccccc2OC)s1
6. Cn1cccc(NC(=O)COc2ccc(Br)cc2)c1=O
7. Cc1ccc(C(=O)NC2CCN(Cc3noc(CC(C)C)n3)CC2)s1

2.1
8.22
-6.87
-4.18
2.38
8.35
-15.2

Hey, quick one: what's cytotoxicity at 10 µM for each of these?
1. CCc1cnc(N)nc1NCCc1ccc(OC)cc1OC
2. CCC[C@H]1CN(S(=O)(=O)c2ccc(-c3c(C)noc3C)s2)C[C@@H]1N

3.29
8.4

Hey, quick one: what's cytotoxicity at 10 µM for each of these?
1. Cc1nc(CCNC(=O)C2CC(=O)N(C(C)C)C2)cs1 (stereo not drawn)
2. O=C(O)CCc1cc2n(n1)CCCN(C(=O)c1ccc(F)cc1F)C2
3. COc1ncccc1CNc1snc(Cl)c1C#N
4. Cc1noc2ncc(C(=O)N3CCCC3c3ccsc3)cc12 (stereo not drawn)
5. O=C(c1n[nH]c(=O)c2ccccc12)N1CCC(O)(CN2CCOCC2)C1 (stereo not drawn)
6. CCOCC(=O)NCC(Cc1cccc(F)c1)n1cccc1 (stereo not drawn)
7. O=C(Nc1ccc2c(c1)OC1(CCCCC1)O2)c1ccc(=O)[nH]n1
8. N#Cc1ccc(CN2CCN(C(=O)c3cc(C4CC4)[nH]n3)CC2)cc1

1. 14.9
2. -0.168
3. 10.2
4. -10.4
5. -1.39
6. -6.22
7. 14.1
8. 18.9

Hey, quick one: what's cytotoxicity at 10 µM for each of these?
1. CCCNc1ncc(CN2CCN(C)C(=O)C2C)cn1 (stereo not drawn)
2. Cc1cc(CN2Cc3ccccc3CC2c2nnc(C)o2)no1 (stereo not drawn)

12.9
2.89

Hey, quick one: what's cytotoxicity at 10 µM for each of these?
1. c1ccc(-n2ccc(CNC3CCc4ncnn4C3)n2)cc1 (stereo not drawn)
2. Cc1cncc(NCC(O)c2ccco2)n1 (stereo not drawn)
3. CCC(C)C(=O)NCc1ccn(-c2ccc(F)cc2)n1 (stereo not drawn)
4. CC(C)N(C)Cc1nnc2n1CCCN(C(=O)c1ccco1)C2
5. COCCOc1ccc(NC(=O)N2CCCC2c2cc(C)no2)cn1 (stereo not drawn)

-2.57
5.58
-2.42
-1.17
5.32

Hey, quick one: what's cytotoxicity at 10 µM for each of these?
1. CC(=O)N1C[C@@H](c2ccsc2)[C@@H]2CN(CC3CCCCC3)CC[C@@H]21
2. CCN1CCc2c(sc3c2C(=O)NC(C=Cc2ccccc2)N3)C1 (stereo not drawn)
3. Cc1ccc(N(C)S(=O)(=O)c2cc(C(=O)O)cs2)c(C)c1

-7.99
4.73
1.82

Hey, quick one: what's cytotoxicity at 10 µM for each of these?
1. Fc1ccccc1CN1CCC[C@@H](Cn2nnc(-c3cccs3)n2)C1
2. CN(C1CCc2ccccc2C1)S(C)(=O)=O (stereo not drawn)
3. COc1ccc(NC(=O)c2nc(C)sc2C(C)C)cn1
4. O=C(c1cc[nH]n1)N1CCC2(CC1)CC(Oc1cccnc1)CO2 (stereo not drawn)

[4.77, -3.78, 0.847, 6.7]

Hey, quick one: what's cytotoxicity at 10 µM for each of these?
1. Cc1c(NC(=O)NCCO)cccc1OC1CCCC1
2. CCN(Cc1nc2c(cnn2C)c(=O)[nH]1)c1cccc(Cl)c1
3. Cc1cnn(C2CN(CC(=O)NCCc3c[nH]c4ccccc34)C2)c1
4. COCC1CN(C(=O)COc2ccccc2)Cc2ncn(C)c21 (stereo not drawn)
5. CC(C)[C@@H](CO)Nc1cc(-c2cn[nH]c2)ncn1
6. Cc1ccc(CN2CCc3[nH]nc(C(=O)N4CCN(C)CC4)c3C2)o1
7. O=C1CN(C(=O)C2CN(c3cccc(F)c3)CCO2)CCN1 (stereo not drawn)
8. CCc1nnsc1C(=O)NCCC1CN(C(C)C)CCO1 (stereo not drawn)

[-2.25, 1.18, -4.01, 0.104, -11.3, -8.19, 5.37, -7.07]

* * *

Experiment: Toxicity liver stage against HepG2, at 10uM
Assay type: cell-based
Parameters: test concentration 10 uM, cell line HepG2-A16-CD81EGFP
Settings: human, HepG2-A16-CD81EGFP cells; read-out: INHIBITION
Exercise: state measured cytotoxicity at 10 µM for each of the molecules provided.
Numbers only, in %.

Reference set, count: 10
O=C(NCCNC(=O)C1CCN(c2ncccn2)CC1)c1ccoc1 ... -9.99
CC(NCc1ccc(F)cc1)c1ccc2[nH]c(=O)[nH]c2c1 (configuration not stated) ... -9.93
CC(C)c1cc(N2CCC3(CCN(C)C3)C2)ncn1 (configuration not stated) ... -11.8
c1cnc(N2CCOC3(COCCN(Cc4cc[nH]n4)C3)C2)nc1 (configuration not stated) ... 11.8
O=C(O)[C@@H]1CN(C2CCCC2)C[C@H]1C1CC1 ... -147
CCN1C(=O)CCC12CCCN(CCc1ccccc1)C2 (configuration not stated) ... -0.449
Cn1cccc1C(=O)N1CCC2(CCN2c2ncccn2)C1 (configuration not stated) ... 10.7
C=C(C)CN1CCC(NC(=O)Nc2cc(C(N)=O)ccc2OC)CC1 ... 10.8
Cc1cc(C)cc(OCC(=O)NC2CCN(S(C)(=O)=O)CC2)c1 ... -5.72
CC(O)CCN(C)C(=O)Nc1cccc(F)c1 (configuration not stated) ... -6.16

Hey, quick one: what's cytotoxicity at 10 µM for each of these?
1. Cn1nc(C(=O)N2CCOCC2)c2c1CN(CC1CC1)C2
2. CC(C)c1ncc2c(n1)CN(Cc1nc(-c3cccnc3)no1)CC2

-90.1
-18.7
